Task for the reader: assign each of the following compounds its reported growth.
- Test system: PC-3 prostate
- protocol notes: NCI-60 one-dose screen, 48 h (100 = growth as untreated, 0 = no growth, -100 = all killed)
- condition: 10 µM unless noted
Compounds without any hit were thinned out: in the full panel of roughly 83,000, 20% have a hit.
Your answer should be a plain number; it is taken to be in %.

// growth value for CC(=O)OC[C@]12CC[C@@H](c3cn(Cc4ccc(Cn5cc([C@@H]6CC[C@]7(COC(C)=O)CC[C@]8(C)[C@H](CC[C@@H]9[C@@]%10(C)CC[C@H](OC(C)=O)C(C)(C)[C@@H]%10CC[C@]98C)[C@@H]67)nn5)cc4)nn3)[C@@H]1[C@H]1CC[C@@H]3[C@@]4(C)CC[C@H](OC(C)=O)C(C)(C)[C@@H]4CC[C@@]3(C)[C@]1(C)CC2 : 104

growth for CN1CCN(CC#CCOC(=O)CNC(=O)[C@]23CCC(C)(C)C[C@H]2C2=CC[C@@H]4[C@@]5(C)CC[C@H](O)C(C)(C)[C@@H]5CC[C@@]4(C)[C@]2(C)CC3)CC1 is 83.4

Kindly note the recorded growth for O=C(CSC(=S)N1CCCCC1)Nc1ccccc1 , which is 92.6

growth in this record for CCOC(=O)c1c(C)nc2c(c1N)/C(=C/c1ccccn1)C(=O)N2Cc1ccccc1 : 2.04

Just so you know, measured growth for Cc1ccn2c3c(c(C(=O)O)c2c1)C(=O)c1ccccc1C3=O came out at 84.8

What the record says about COc1ccc(-c2cc(C(=O)N3N=C(c4ccc(N)cc4)CC3c3ccc(OC)cc3)c3cc(OC)ccc3n2)cc1 (stereo not given) : growth is 42.5

The recorded growth for entry COc1ccc(C2N(c3cc(OC)c(OC)c(OC)c3)C(=O)C2(F)F)cc1F (stereo not given) equals 35.9

compound O=C(O)c1cn(C2CC2)c2cc(N3CCN(Cc4nnc(Nc5ccccc5)o4)CC3)c(F)cc2c1=O , growth observed: 105

The compound C=C1C(=O)O[C@H]2[C@H]1CC/C(C=Nc1c(N)cc(C(F)(F)F)cc1Br)=C\CC[C@@]1(C)O[C@@H]21 showed growth equal to 6.24

Memo: CCn1cc(C(=O)O)c(=O)c2cc(F)c(N3CCN(CC(=O)Nc4ccc(/C(C)=N/OC)cc4)CC3)cc21 , reported growth: 85.5

// field: growth; key: N#Cc1c(-c2ccc(Cl)cc2)cc(-c2cc3ccccc3o2)nc1SCC(=O)c1ccc(Cl)cc1 ; value = 84.6

GET /value?item= COc1cccc(C(=O)OCCn2nc3c4c(cccc42)C(=O)c2ccccc2-3)c1O &field=growth returns 20.5

Value of measured growth for the entry NS(=O)(=O)c1ccc(N2Cc3cc(Cl)ccc3OC3=C2C(=O)N(CC2CCCCC2)C3=O)cc1 : -61.9

The value of growth measured for the compound C[C@H]1[C@H](C)CC[C@]2(C(=O)OCCOCCOCC[P+](c3ccccc3)(c3ccccc3)c3ccccc3)CC[C@]3(C)C(=CC[C@@H]4[C@@]5(C)CC[C@H](OC(=O)C(Cl)Cl)C(C)(C)[C@@H]5CC[C@]43C)[C@H]12 turned out to be 5.1

So for S=C(Nc1ccc(Cl)cc1)c1ccccn1 , the logged growth turned out to be 85.6

====

- System: SNB-19 CNS
- protocol notes: NCI-60 one-dose screen, 48 h (100 = growth as untreated, 0 = no growth, -100 = all killed)
- condition: 10 µM unless noted
- Protocol: Growth inhibition of the SNB-19 human tumor cell line is measured as a screen for anti-cancer activity. Cells are grown in 96 well plates and exposed to the test compound for 48 hours. Compounds are tested at a single concentration, which is 10^-5 M for most compounds. The reported endpoint is percent growth (GI% or GIPRCNT), where numbers from 0 - 100% represent growth inhibition, and numbers from -100% - 0 represent cell death. For example, a value of 40 represents 60% growth inhibition. […]
This is part of a sample that, as a whole, favours compounds with a hit. Of some 83,000 tested, about 20% had one in any assay.
experimental endpoint: growth (%)
Respond with the bare value in %.

The reported value for OCCNc1nc(NCCO)nc(Nc2ccc(C3=NN(c4cc(Cl)cc(Cl)c4)C(c4ccccc4)C3)cc2)n1 (stereo not drawn) in terms of growth is 58.7

growth recorded for this compound, COc1cc(N=Nc2cc(S(=O)(=O)O)cc3cc(S(=O)(=O)O)cc(O)c23)c(C)cc1N=Nc1c(S(=O)(=O)O)cc2cc(Nc3ccccc3)ccc2c1O , is 104

Consider CN(C)CCCn1c2c(c3cc(-c4cccc(S(N)(=O)=O)c4)ccc3c1=O)C(=O)c1ccccc1-2 . Its measured growth is 64.8

The value of growth measured for the compound CSc1cccc(NC(=O)Nc2nc3c(C)cccc3s2)c1 turned out to be 98.2

Short answer for NCCCn1c2c(c3cc(-c4ccn[nH]4)ccc3c1=O)C(=O)c1ccccc1-2 : growth was 55

In plain terms, Cc1cccc(C)c1NCc1nnc(-c2ccc(O)cc2)o1 has a documented growth of 108

Form field growth, entry N#CC(C#N)=C1NC(c2ccccc2)=C(c2ccccc2)C(c2ccccc2Cl)=C1C#N : 106

Consider Cc1cnc(SCc2ccc(Cl)cc2)[nH]c1=S . Its measured growth is 98.2

# compound C=C(C)[C@@H]1CC[C@]2(C(=O)O)CC[C@]3(C)[C@H](CC[C@@H]4[C@@]5(C)C[C@@H](CC#Cc6ccccc6)C(=O)C(C)(C)[C@@H]5CC[C@]43C)[C@@H]12 ; its growth = 46.3

The compound listed as Oc1ccc(CNNc2ccnc3c(O)cccc23)c2cccnc12 shows growth equal to 29.7

Recorded result, COc1ccc(-c2nnc(N3CCN(C(=O)CN4CCN(c5ccccc5)CC4)CC3)nc2-c2ccc(OC)cc2)cc1 , growth: 53.5

growth measured on C=C(C)[C@@H]1CC[C@]2(C(=O)N3CCN(C)CC3)CC[C@]3(C)[C@H](CC[C@@H]4[C@@]5(C)C/C(=C/c6ccco6)C(=O)C(C)(C)[C@@H]5CC[C@]43C)[C@@H]12 = 80.1

GET /value?item= CCOC(=O)c1sc(/N=C2\NC(=O)/C(=C/c3ccc(N4CCN(C)CC4)cc3)S2)nc1C &field=growth returns 104

Lab note: Nc1c(C(=O)Nc2ccccn2)sc2nc3c(cc12)C(=O)CCC3 gave growth of 28.2

# growth of Cc1nnc(/N=C2\NC(=O)/C(=C/c3ccsc3)S2)s1 = 100

Summary for this compound, Cc1cc(Cl)cc(CN(Cc2ccccc2)Cc2c(O)ccc3ccccc23)c1O : growth is 99.9

The compound NS(=O)(=O)c1ccc(N2Cc3cc(Cl)ccc3OC3=C2C(=O)N(CC2CCCCC2)C3=O)cc1 showed growth equal to -6.19

The reported growth of the compound COc1ccc(-c2cs/c(=N\N=C\c3ccc(O)cc3O)n2/N=C/c2ccc(O)cc2O)cc1 was 5.62

====

For each entry below, report its growth value.
- Tested on: MDA-MB-231 breast
- protocol notes: NCI-60 one-dose screen, 48 h (100 = growth as untreated, 0 = no growth, -100 = all killed)
- condition: 10 µM unless noted
Compounds without any hit were thinned out: in the full panel of roughly 83,000, 20% have a hit.
The answer is to be given in %; state only the numeric part.

CC(C)C1=C[C@@]23CC[C@H]4[C@](C)(COCCC#N)CCC[C@]4(C)[C@H]2C[C@@H]1[C@@H]1[C@H]3[C@@H](OCCC#N)CC[C@@H]1OCCC#N yielded growth of 59.5

// growth lookup, molecule = O=C(CCCC(=O)Nc1ccc(-n2nnc3cc(Cl)c(Cl)cc32)cc1)Nc1ccc(-n2nnc3cc(Cl)c(Cl)cc32)cc1 , result: 49.9

For record O=C(Nc1ccc2ncnc(Nc3cccc(C(F)(F)F)c3)c2c1)c1cccs1 the listed growth is 54.3

Per the record, CN1CC=C(c2cc(NC(=O)Nc3ccc(Oc4ccnc(NC(=O)C5CC5)c4)c(F)c3)cc(C(F)(F)F)c2)CC1 has growth of -11.8

Lookup result for O=[N+]([O-])c1cccc(CN(Cc2cccc([N+](=O)[O-])c2O)c2ccccc2)c1O ; measured growth: 68.8

growth measured on C[C@H]1[C@H](C)CC[C@]2(C(=O)OCCCC[P+](c3ccccc3)(c3ccccc3)c3ccccc3)CC[C@]3(C)C(=CC[C@@H]4[C@@]5(C)CC[C@H](OC(=O)C(Cl)Cl)C(C)(C)[C@@H]5CC[C@]43C)[C@H]12 = -68.8

For this molecule ( Nc1c(C(=O)Nc2ccccn2)sc2nc3c(cc12)CCCCCC3 ), measured growth is 49.4

====

- Tested on: NCI-H23 lung
- protocol notes: NCI-60 one-dose screen, 48 h
- condition: 10 µM unless noted
The panel holds about 83,000 compounds, 20% with a hit somewhere; the sample as a whole holds those more often. Active and inactive are the calls of the source. The calls were made as follows: active = growth percent below 10; inactive = the rest.
// one of true (1) = active, false (0) = inactive, no free text

## Task Can you look up the reported call for Cc1cc(NC(=O)CNc2nc(Oc3ccc(F)cc3)nc(-c3ccc(F)cc3)n2)ccc1Cl for me?
## Result false (0)

## Task // return assay outcome for CC(=O)c1ccc(NC(=O)CSc2nnc(-c3cc(-c4ccc(Cl)cc4)nc4ccccc34)o2)cc1
## Result false (0)

## Task Called result for Nc1ccc(C2=NN(C(=O)c3cc(-c4ccc(Cl)cc4)nc4ccccc34)C(c3ccccc3)C2)cc1 (stereo not given)
## Result false (0)

## Task For CCCCn1c(=O)c(/C=C/C(=O)/C=C/c2ccc(O)c(OC)c2)cc2ccc(Cl)cc21 , what call appears in the results of this test?
## Result false (0)

## Task In this assay, the call recorded for COc1ccc2oc(=O)cc(-c3nc4ccc(N)cc4[nH]3)c2c1 was what?
## Result false (0)

## Task Could you kindly confirm the outcome this assay logged for COC(=O)/C=C1\SC(=Nc2ccc(C(F)(F)F)cc2)N(CCc2c[nH]c3ccccc23)C1=O ?
## Result true (1)

## Task Tell me the assay call for COC(=O)/C=C/c1cc(OC(C)=O)c2c(c1)C(C(=O)OC)C(c1ccc(OC(C)=O)c(OC(C)=O)c1)O2 (stereo not given) please.
## Result false (0)

## Task Field: outcome | Entry: COC(=O)c1ccc2c(c1)n(Cc1ccc3ccccc3c1)c[n+]2Cc1ccc2ccccc2c1
## Result false (0)

## Task // return assay outcome for COc1ccc2[nH]c(=O)c(/C=C/C(=O)c3ccccc3OC)cc2c1
## Result false (0)

## Task Could you check what this test reported for C#Cc1cccc(Nc2ncnc3ccc(NC(=O)c4ccccc4)cc23)c1 ?
## Result false (0)

## Task Status in this test for Nc1c(C(=O)Nc2ccccn2)sc2nc3c(cc12)C(=O)CCC3 ?
## Result false (0)

## Task Which outcome was assigned to COc1cc(C2=NN(C(C)=O)C(c3cccc(Nc4ccnc5cc(C(F)(F)F)ccc45)c3)C2)cc(OC)c1OC (stereo not given) in this test?
## Result false (0)

## Task Give the logged outcome of this assay for the following compound: COCCOCCOCc1n(Cc2ccc3ccccc3n2)c2ccccc2[n+]1Cc1ccc2ccccc2n1
## Result false (0)

## Task Per the assay record, what outcome was assigned to CC1(c2ccccc2Cl)NC(=O)NC1=O (stereo not given) ?
## Result false (0)

## Task Status in this test for COC(=O)/C=C1\SC(=Nc2ccc(F)cc2)N(CCc2c[nH]c3ccccc23)C1=O ?
## Result false (0)

## Task # lookup: test call for O=c1[nH]c2ccccc2cc1-c1nc2ccc(Cl)cc2[nH]1
## Result false (0)

## Task Any idea what this test logged for Cc1nccc2c3ccc(OCc4cn(-c5ccccc5)nn4)cc3n(CCCc3ccccc3)c12 ?
## Result false (0)

## Task Field: outcome | Entry: CCOC(=O)c1ccc(Nc2ncnc3ccc(NC(=O)c4ccccc4)cc23)cc1
## Result false (0)

## Task Returns: the outcome recorded for NCCCn1c2c(c3cc(-c4ccn[nH]4)ccc3c1=O)C(=O)c1ccccc1-2 in this assay.
## Result false (0)

## Task I would be grateful if you could indicate the recorded call for Cc1nccc2c3ccc(OCc4cn(-c5ccc(Br)cc5)nn4)cc3n(CC(C)C)c12 .
## Result false (0)
